Record form. Attribute: GI50. Fill in for each entry.
- Tested on: NCI-H23
- protocol.notes: NCI tumour cell line growth inhibition, 48 h
Active and inactive are the calls of the source. Cut-off read from the data, not from the text of the source: active = GI50 up to about 1.1 µM and inactive = higher.

{"columns": ["smiles.structure", "endpoint.result"],
 "data": [
  ["C#Cc1cc(CN(CC(=O)OC(C)(C)C)CC(=O)OC(C)(C)C)nc(CN(CC(=O)OC(C)(C)C)CC(=O)OC(C)(C)C)c1", "4.74 µM (inactive)"],
  ["CCCCCCCCCCCC[C@@H](O)[C@H]1CC[C@H]([C@H]2CC[C@H]([C@H](O)CC[C@H](O)CCCCCCCC3=C[C@H](C)OC3=O)O2)O1", "0.0201 µM (active)"]
]}

# evaluate next
In plain terms, CSc1c(C)c(C)nn1-c1ccccc1 has a documented GI50 of > 100 µM (inactive)

###

- Test system: SF-539
- protocol.notes: NCI tumour cell line growth inhibition, 48 h
The source made the active and inactive calls. Cut-off read from the data, not from the text of the source: active = GI50 up to about 1.1 µM and inactive = higher.
measurement.kind: GI50

{"columns": ["compound", "assay.target", "endpoint.result"],
 "data": [
  ["O=C(c1ccccc1)c1ccc2c(c1)nc1n2C(c2c(Cl)cccc2Cl)SC1 (stereo unspecified)", "SF-539", "> 100 µM (inactive)"],
  ["Cc1cc(NS(=O)(=O)c2ccc(NC(=O)c3cccc4c(Nc5ccc(S(=O)(=O)Nc6cc(C)on6)cc5)c5ccccc5nc34)cc2)no1", "SF-539", "27.4 µM (inactive)"],
  ["CCOP12(OCC)NC(=O)OC1(C(F)(F)F)c1ccccc1O2 (stereo unspecified)", "SF-539", "> 100 µM (inactive)"]
]}

Your task in this section: give GI50 for each listed record.
1. CSc1cc(Cl)c(C(=O)Nc2ccccc2)cc1S(=O)(=O)n1ccnc1O
2. CCN(CC)c1ccc(C(=O)c2ccccc2C(=O)O)c(O)c1
3. Cc1cc(OP2(=O)NCc3ncccc3O2)ccc1Cl (stereo unspecified)
4. COc1cc(CCc2ccc(OC(C)=O)cc2)cc(OC)c1OC
5. CC(C)CCOC(=O)NC(Nc1ccc(F)cc1)(C(F)(F)F)C(F)(F)F
6. CCC1CC2CN3CCc4c([nH]c5c(-c6c(OC)ccc7c8c([nH]c67)[C@]6(C(=O)OC)CC7CC(CC)C6N(CC8)C7)c(O)ccc45)[C@](C(=O)OC)(C2)C13 (stereo partly specified)
7. COc1cc(C(SCc2ccccc2)SCc2ccccc2)ccc1O
8. COC1(OC)CCc2c(sc3ncnc(Nc4cccc(Br)c4)c23)C1

1. > 100 µM (inactive)
2. > 100 µM (inactive)
3. > 100 µM (inactive)
4. > 100 µM (inactive)
5. 16.1 µM (inactive)
6. 19.5 µM (inactive)
7. > 10 µM (inactive)
8. > 100 µM (inactive)

###

- Test system: SK-MEL-2
- protocol.notes: NCI tumour cell line growth inhibition, 48 h
Activity calls are given as the source filed them. Rule as the data show it: active = GI50 up to about 1.1 µM and inactive = higher.
Hello, when you answer, please use one of the following outcomes: active, inactive

Look over these answered cases.
{"columns": ["compound", "label.class"],
 "data": [
  ["C[N+](C)(C)C(C1=CCCC1=O)c1ccccc1 (stereo unspecified)", "inactive"],
  ["N#C/C(=C\\c1ccccc1)C(NO)Nc1ccccc1 (stereo unspecified)", "inactive"],
  ["CC(C)(C)c1ccc2c(c1)C#Cc1cc(C(C)(C)C)ccc1OCCCO2", "inactive"],
  ["CC(=O)OC[C@@]1(C)[C@@H]2[C@@H]3[C@@]4(CO[C@]3(C)C(=O)[C@@]3(O)C[C@H](C)[C@H](OC(C)=O)[C@@H]3[C@H]4OC(C)=O)[C@H](OC(=O)c3ccccc3)C[C@@H]21", "inactive"],
  ["Oc1cccc(-c2cc(O)c3cc4c(cc3n2)OCO4)c1", "active"],
  ["O=C(Nc1ccc(Cl)c(Cl)c1)C(=O)C(C(=O)c1ccccc1-c1ccccc1)C1OC(=O)c2ccccc21 (stereo unspecified)", "inactive"],
  ["O=C1C(c2ccc(Cl)cc2)=[N+]([O-])c2ccccc21", "inactive"],
  ["Cc1ccc(NC(=O)C2C(=O)C(=O)N(c3ccc(C)cc3)C2=O)cc1 (stereo unspecified)", "inactive"]
]}

Per the assay record, what outcome was assigned to Cn1cc(NC(=O)c2cc(NC(=O)CCCCCCCCCC(=O)Nc3cc(C(=O)Nc4cc(C(=O)NCCC(=N)N)n(C)c4)n(C)c3)cn2C)cc1C(=O)NCCC(=N)N ? inactive

Fill in: this test's call for N#CI1OC(=O)c2ccccc21 is ___ inactive

Dear colleague, could you share the recorded outcome for O=c1[nH][nH]c(=O)n1/N=C/c1ccccc1 when you have a moment? inactive

For COC(=O)CN1CCN(c2cccc3c2CCCC3)CC1 , which call appears in the assay record? inactive

// param item: CCOC(=O)C#Cc1ccc([N+](=O)[O-])cc1 ; yields the recorded call inactive

Each compound tested received a call. Report the one for CC(SC(=O)Nc1ccc(/N=N/c2ccccc2)cc1)C(=O)O (stereo unspecified) . inactive

// param item: Oc1cccc(Nc2cc(O)nc(O)n2)c1 ; yields the recorded call inactive

Hi, sorry to bother you, what did the test record for CC1=C(CO)C2=C(C)C3(CC3)[C@@](C)(O)C(=O)C2=C1 [IROFULVEN] ? active

###

- Test system: HCT-116
- protocol.notes: NCI tumour cell line growth inhibition, 48 h
Active and inactive are the calls of the source. Cut-off read from the data, not from the text of the source: active = GI50 up to about 1.1 µM and inactive = higher.
What GI50 was measured for each of the following?

Solved cases (2 shown):
{"columns": ["compound", "GI50"],
 "data": [
  ["CCOC(=O)c1c(SC(=O)c2ccc(Cl)cc2)n(-c2ccccc2)c(=S)n(-c2ccccc2)c1=O", "> 100 µM (inactive)"],
  ["C[N+](C)(C)/C=N\\c1cccc2nsnc12", "> 100 µM (inactive)"]
]}

Could you now consider this next compound?
The value of GI50 measured for the compound Cc1ccc(C)c(NC(=O)C(=O)C2C(=O)C3=C(CC2(C)C)Nc2ccccc2S3)c1 (stereo not drawn) turned out to be > 100 µM (inactive)

###

- System: NCI-H460
- protocol.notes: NCI tumour cell line growth inhibition, 48 h
The source made the active and inactive calls. Cut-off read from the data, not from the text of the source: active = GI50 up to about 1.1 µM and inactive = higher.
Please state which outcome applies, choosing from active, inactive

{"columns": ["compound", "label.class"],
 "data": [
  ["COc1ccc(N2CCOCC2)cc1", "inactive"],
  ["CCN(CC)C(=C(C(Cl)=C(Cl)Cl)[N+](=O)[O-])N(CC)CC", "inactive"],
  ["NS(=O)(=O)c1ccc(Nc2c3ccccc3nc3c(C(=O)NCCO)cccc23)cc1", "active"],
  ["O=C(Nc1nccs1)c1cc(C2=CC=CC([N+](=O)[O-])C=C2)nc(S)n1 (stereo not given)", "inactive"]
]}

Query: recorded result category for CC(C)CCn1nc(N)c2nc3ccccc3nc21 in this test inactive

###

- Tested on: NCI-H23
- protocol.notes: NCI tumour cell line growth inhibition, 48 h
Active and inactive are the calls of the source. Rule as the data show it: active = GI50 up to about 1.1 µM and inactive = higher.
Would you mind telling me the reported GI50 of each entry?

The following compounds have reported results that may help.
{"columns": ["smiles.structure", "assay.target", "GI50"],
 "data": [
  ["CC[C@@]1(C[C@H]2C[C@@]3(C(=O)OC)c4[nH]c5ccccc5c4CCN3C2=S)COC2(CCCCC2)O1", "NCI-H23", "21.4 µM (inactive)"],
  ["CSc1ncc2c(C#N)c3n(C)c4ccccc4n3c(=O)c2n1", "NCI-H23", "> 100 µM (inactive)"],
  ["O=C1c2ccccc2C(=O)C12CCc1ccccc12", "NCI-H23", "> 100 µM (inactive)"]
]}

Readout GI50 for C[N+](C)(C)/C=N\c1cccc2nsnc12 , test system NCI-H23, was > 100 µM (inactive)

###

- Tested on: COLO 205
- protocol.notes: NCI tumour cell line growth inhibition, 48 h
The source made the active and inactive calls. Cut-off read from the data, not from the text of the source: active = GI50 up to about 1.1 µM and inactive = higher.
Field: GI50. Provide a value for each of the compounds that follow.

{"columns": ["compound", "assay.target", "GI50"],
 "data": [
  ["Fc1ccc(/N=C/C=C/Nc2ccc(F)cc2)cc1", "COLO 205", "1.55 µM (inactive)"],
  ["Cc1c(NC(=S)Nc2ccc([N+](=O)[O-])cc2)c(=O)n(-c2ccccc2)n1C", "COLO 205", "> 100 µM (inactive)"],
  ["Nc1nc(Cl)cc(NCCCCCCNc2cc(Cl)nc(N)n2)n1", "COLO 205", "> 100 µM (inactive)"],
  ["COc1cc(/C=C2\\N=C(c3ccccc3)N(c3nc4cc(C)c(C)cc4s3)C2=O)cc(OC)c1OC", "COLO 205", "27.5 µM (inactive)"],
  ["CCOc1cc(C(=O)O)c2c(ccc3ccc(OC)c(OC)c32)c1OC", "COLO 205", "> 100 µM (inactive)"]
]}

Each compound below has a reported value. Please supply its GI50.
1. CCOC(=O)CN1CCNCCN(CC(=O)OCC)CCNCC1
2. O=S(=O)(O)c1ccc(O)c2ncc(Cl)cc12

1: > 100 µM (inactive); 2: > 100 µM (inactive)

Quick batch: GI50 for everything below.
1. CCCCCCCCCCCC[C@@H](O)[C@H]1CC[C@H]([C@H]2CC[C@H]([C@H](O)CC[C@H](O)CCCCCCCC3=C[C@H](C)OC3=O)O2)O1
2. CCN(Cc1cc(Cl)cc(C)c1O)Cc1c(O)ccc2ccccc12

1.86 µM (inactive)
22.7 µM (inactive)
